# Target of assay: UniProt:P35367
# Sequence (P35367 whole entry): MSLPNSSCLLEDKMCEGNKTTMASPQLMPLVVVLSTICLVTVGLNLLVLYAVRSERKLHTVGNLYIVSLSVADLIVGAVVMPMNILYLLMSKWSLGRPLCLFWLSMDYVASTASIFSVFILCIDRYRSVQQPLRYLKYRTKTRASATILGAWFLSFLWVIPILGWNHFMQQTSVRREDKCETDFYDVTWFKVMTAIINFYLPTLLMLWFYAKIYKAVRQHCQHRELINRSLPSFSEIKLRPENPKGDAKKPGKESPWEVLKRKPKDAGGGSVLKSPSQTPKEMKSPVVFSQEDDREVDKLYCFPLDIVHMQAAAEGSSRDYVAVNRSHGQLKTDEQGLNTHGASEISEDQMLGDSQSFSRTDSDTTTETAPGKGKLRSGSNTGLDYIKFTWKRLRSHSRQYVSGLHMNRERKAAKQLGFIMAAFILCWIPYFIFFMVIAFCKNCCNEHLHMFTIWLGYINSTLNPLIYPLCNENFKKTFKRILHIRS
# Assay text: Displacement of [3H]-mepyramine from human histamine H1 receptor
# Design: concentration or dose not given beside the values
# Recorded conditions: concentration not given here
Assay endpoint: inhibition (%)
Kindly provide the numeric value in % only, without the unit symbol.

Sure, the documented inhibition for `CC(C)N1CCC(Oc2ccc3c(c2)cc2n3CCN(C(C)C)C2=O)CC1` is -6

According to the records, this compound `CC(C)N1CCC(Oc2ccc3c(c2)cc2n3CCN(C)C2=O)CC1` displays inhibition of -4

Value of inhibition reported for the compound `C[C@@H]1CCCN1CCCOc1ccc2c(c1)cc1n2CCNC1=O` is 13

The compound listed as `CC(C)N1CCC(Oc2ccc3c(c2)cc2n3CCN(CCO)C2=O)CC1` has a reported inhibition of -1

In plain terms, `CC(C)N1CCC(Oc2ccc3c(c2)cc2n3CCN(CC(F)(F)F)C2=O)CC1` has a documented inhibition of -1

Record `CC(C)N1CCC(Oc2ccc3c(c2)cc2n3CCN(Cc3ccccc3F)C2=O)CC1` , field inhibition: 16

Per the record, `CC(C)N1CCC(Oc2ccc3c(c2)cc2n3CCNC2=O)CC1` has inhibition of 1

Record summary for `CC(C)N1CCC(Oc2ccc3c(c2)cc2n3C[C@@H](C)N(CC3CC3)C2=O)CC1` : reported inhibition = 3

// recorded inhibition for `O=C1NCCn2c1cc1cc(OC3CCN(CC4CC4)CC3)ccc12` : -4

Form field inhibition, entry `CC(C)N1CCC(Oc2ccc3c(c2)cc2n3CCN(Cc3ccc(F)cc3)C2=O)CC1` : 17

# compound `C[C@H]1CCCN1CCCOc1ccc2c(c1)cc1n2CCNC1=O` ; its inhibition = 11
